Experiment: soluble fraction after stress (log2 fold change); higher = more stays soluble; pooled small domains, quantitative proteomics;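 note: 20 min heating vs room temperature control held 20 min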
Conditions: stress: 75 degC
Think of -0.09 as a floor: if soluble fraction (log2) stands on it or above, it is criterion met; beneath it, criterion not met.

Record excerpt, results attached:
HMKKAIYPGSFDPLTLGHIDIIKRASGIVDELVVGVLNNSAKNSLFSLDERVSMIEEMTKDLPNVSVTSFD; criterion met
HMTNELTEIFNSIRLTKKQKELLQSNYLSLRETYFLQGKTAFNLKFKNIAGLGKSTKKVLLEFFEESIE; criterion not met
HMPELSITDADIIVAGGRGMGSAENFGLIRELAGLLGAAVGASRVVVDAEWVDQKHLIGQTGK; criterion met
HMPFREGDEVFVELVEPHMYNEDDAVAKLDGYVVAVRGAAGLVGQKVLVRIERVGRSSAEATLVA; criterion met
HMEEEDELALFLREERKNYDLTLTDVHEKTGIPQKVLKEFQWGDAQLTDRQRYTLTQYVEEAREYFQENA; criterion met
HMRIPANIAEDIKKLQKKEHHLHHHLGRDPFDDELAKELEWDTEQVSEIRQMIKNPELLEELLEAEREEE; criterion met

Request: Check the entry `HMDQAEDVLSIPVDALMRGNQVYIKDDTVTEQQGPIPAGFKAVEVETGLISDSYVEIKSGLSEGDTVYVAE` : does soluble fraction (log2) equal or exceed -0.09?
Response: criterion met

Request: Check the entry `HMSVSATQMDAFVRQLRARLSSADGLDDAARLVRQDLEPFLGRFSDETERDFAAAIEQVRGSIRPVEI` : does soluble fraction (log2) equal or exceed -0.09?
Response: criterion not met

Request: Check the entry `HMSYIGEEKAKSIAVSNVKGAGTNNVVKVEFDYDDGRAVYEVKVVYNAMEYEFEIDASNGKILSRDAESIY` : does soluble fraction (log2) equal or exceed -0.09?
Response: criterion not met

Request: Check the entry `HMESAEQTGEELAARVNVLQTVSQALARELGREAAVEELADKMKMTVDEVKDIMKMAMDAMSM` : does soluble fraction (log2) equal or exceed -0.09?
Response: criterion met

Request: Check the entry `HMDDNRSLSDLAQQVFKRENIQVSRDTLSLLVSRLGSDRAVSRQEIEKLALFAGSNGKLTEEDIHNALG` : does soluble fraction (log2) equal or exceed -0.09?
Response: criterion met

Request: Check the entry `HMLKEKETRALANFTNKFFGLDISEDLKPIALSELSKFKKTHKISNLEEFINSFQYDFQNEKILSLLDIFL` : does soluble fraction (log2) equal or exceed -0.09?
Response: criterion not met

Request: Check the entry `HMKGEKVTKIELSNFIKFLINDLENKGFFNPPEKKDSMIDNIYSIYNKMTLTKKELNMLWGMHKKLK` : does soluble fraction (log2) equal or exceed -0.09?
Response: criterion not met

Request: Check the entry `HMDNNFIQSLYPIAIGISKNQLDPWDLINGWVEYYLKNKEKYINHPNLKAVAVLKMKGLLIDHFRKS` : does soluble fraction (log2) equal or exceed -0.09?
Response: criterion not met

Request: Check the entry `HMTGLSNFEFNQIKLDLMHELTQTPLRLTDLVNRITSFENEKTITVIRFLVDEGILLLKDDTLSVAKID` : does soluble fraction (log2) equal or exceed -0.09?
Response: criterion not met

Request: Check the entry `HMSESIFTLYGDEKFEKIRYYLKERGFITLDALARFDFDELLFVPGVSELLISEAKQLFSRYDTSSLAAKE` : does soluble fraction (log2) equal or exceed -0.09?
Response: criterion not met

====

Assay: soluble fraction after stress (log2 fold change); higher = more stays soluble; pooled small domains, quantitative proteomics
Details: stress: 75 degC
Below, each entry is listed alongside its reported soluble fraction (log2).
Just the number, please.

Answered examples (3):
HMEALGLSPRQVDVLRLLVEGRSNKMIMRELELSESTVKTHLQAIFRRLGVSSRTQAVVAAARLGL; -1.2
HMRPTDVLNYDESMRILNFSNNRVGFKHLMDAKGIEQVIFKNRKIGYRKSEILALKSELEAEQK; -0.958
HMQVVDWSQVDKEDYLLATKRRAVSTGELKFLLLNNLTYDLTQTRFFKGMDASYYYEGYNLYQTGE; 0.0696

Request: Please list soluble fraction (log2) recorded for the sequence `HMFDTVKIGKRIAELRKKRDMTQFELADRLGISYQAVSNWERGNSMPDIAKLPELAEIFGVTVDEILG`
Response: 0.283

Request: Please list soluble fraction (log2) recorded for the sequence `HMGPLSDRSVADWLLRLGLADTANNRLLLQVMHAAGLPLERTAVRAMRETAAGRPEGTDAREWLQAAAAAQ`
Response: -0.571

Request: Please list soluble fraction (log2) recorded for the sequence `HMRYLMPDLVNRRYEPVRSLLEARGIRFGNVIFEPYEGLPPGIVLRQDPPAGHPLPRRRTVSLVVSGPGGR`
Response: -2.56

Request: Please list soluble fraction (log2) recorded for the sequence `HMANFGSILRNLRISRDITQSELAAKLGVSRSTVGMYETGAREPDFEAMEAIADTFNVDMDYLVGRSQ`
Response: -0.258

Request: Please list soluble fraction (log2) recorded for the sequence `HMKLTALWTANPKISAPIYSEPSTQSKTLGRIYQGASVKVYSFDPEWAYINSSGVVGYVLRRHLE`
Response: -2.43

====

Assay: soluble fraction after stress (log2 fold change); higher = more stays soluble; pooled small domains, quantitative proteomics
Details: stress: 75 degC
Below, each entry is listed alongside its reported soluble fraction (log2).

HMKNAMTDIYLEEIKKILTKNEFLVYTLRELNNFSVQFITDNYDLSEKTIYNSVYRAKKKIDRHFT; -0.159

Request: Please list soluble fraction (log2) recorded for the sequence `HMLDLSDFEVVRDLYLSEQIWNVGDLIIARSKKDDTYKAWEIIRKGTNYVTGIDESHKVEKIWLHDILI`
Response: -1.15

Request: Please list soluble fraction (log2) recorded for the sequence `HMTSVRVPVKKEIWFWAIKESQRDLNEILARFPKMDKWINQEENPTFNQLEKVAKFLRVPFGYMFLDKPPK`
Response: -1.86

Request: Please list soluble fraction (log2) recorded for the sequence `HMVGNEEALRAIVESIIAQNTTEVASFREGKEGLIGWFLGQVMRQTGGKADPKLARQILLELLKQ`
Response: -0.449

Request: Please list soluble fraction (log2) recorded for the sequence `HMGDTLEIVVIYSNKQKAEEAVNNLKGKFEDLGYNFAIITVDTSKITQLAMESSIQYIEFPKSFYFSD`
Response: -4.25

Request: Please list soluble fraction (log2) recorded for the sequence `HMTGSETLQDIFAHLEAGTVRTALSLIPRLDAVEYEQNRQRIAELAGVRPSALDDLRKQAKREEN`
Response: ≥ 1.04

Request: Please list soluble fraction (log2) recorded for the sequence `HMAPGIGDSKYFSHIYEMKHIDTIIDNDKGDRLIEHFEIQDTPFIFTKHWTSAFGFSKRQQEIITDYLSYF`
Response: 0.12

Request: Please list soluble fraction (log2) recorded for the sequence `HMSKYGIAYSEVLEILKHIPIEDYNKIPRNEIELFETYADKDFTFNYDSSKTLEEQNVSNITKGIIIL`
Response: -0.56

Request: Please list soluble fraction (log2) recorded for the sequence `HMLADTNIHTIALKHRLANEVVEQVRPFLPETATIRAYDNMLILKSDRATLANVEQLIKKLDT`
Response: 0.0428

Request: Please list soluble fraction (log2) recorded for the sequence `HMDKKTMFNEALAKLVSYATAHDNLITMEDVKSFFNGLIDDDSQYKLIYDYLSINKIEIKGFT`
Response: -0.465

Request: Please list soluble fraction (log2) recorded for the sequence `HMRSVEVAAEPGMVLEDRQTGFVGAVVAVEKSGGTHLVVLEDRHGLRRGFPLGPGFWLEGRPVVLAPPP`
Response: -1.01

Request: Please list soluble fraction (log2) recorded for the sequence `HMDNRLFKMLYYLLDKERATAPELAAEFEVSTRTIYRDVEALSSAGIPIYAEPGRNGGIYLLQD`
Response: -2.3

Request: Please list soluble fraction (log2) recorded for the sequence `HMVINQRKLNLLSIYSSGSEKRAIILFPTGQTKFVKVGDTLDGGRVAAIGTSEIRYLKGGNNLVLRIPG`
Response: -2.64

Request: Please list soluble fraction (log2) recorded for the sequence `HMNRREFQFSEGSSNKFWSIELRDQSFIVHYGKIGTNGQAQEKTFATADAAKKEHDKLIAEKTKKGYVEVQ`
Response: -0.34

Request: Please list soluble fraction (log2) recorded for the sequence `HMTATKDLPFSTFITEVEKGNITSVDIKGNQIEGTFSNGAKFKTYSPNYPNLVERLADKGVAISAGPS`
Response: 0.0934

Request: Please list soluble fraction (log2) recorded for the sequence `HMPEKNQITHLIRLIDDRDEFVRKRVREQLIKLGEDAIPFLEMAAKTENLEIQRIASEIIQAIIPRQ`
Response: -0.745

Request: Please list soluble fraction (log2) recorded for the sequence `HMIPYSDLLKLLSNDAMPKFRNKDGWAKIHALETYLASRWSYQEYGFASFTVLLETVHNAEIRNDSVRLM`
Response: -0.479
